Attribute: MIC
- Test system: Bacillus subtilis ATCC 6633
EXPERIMENTAL READOUT: MIC (µM)

SMILES REPR: C[C@H](NC(=O)[C@H](C)NC(=O)[C@H](C)NC(=O)[C@H](Cc1ccccc1)NC(=O)[C@H](C)NC(=O)[C@H](CCCCN)NC(=O)[C@@H](N)CCCCN)C(=O)N[C@@H](C)C(=O)N[C@@H](C)C(=O)N[C@@H](Cc1ccccc1)C(=O)N[C@@H](C)C(=O)N[C@@H](C)C(=O)N[C@@H](Cc1c[nH]c2ccccc12)C(=O)N[C@@H](C)C(=O)N[C@@H](C)C(=O)N[C@@H](Cc1ccccc1)C(=O)N[C@@H](C)C(=O)N[C@@H](CCCCN)C(=O)N[C@@H](CCCCN)C(=O)N[C@@H](CCCCN)C(=O)N[C@@H](CCCCN)C(N)=O
READOUT QUALIFIER: =
NUMERIC READOUT: 2

SMILES REPR: CC[C@H](C)[C@H](NC(=O)[C@H](CC(C)C)NC(=O)[C@@H]1CCCN1C(=O)[C@H](CC(C)C)NC(=O)[C@@H](N)Cc1ccccc1)C(=O)N[C@@H](CC(C)C)C(=O)N[C@@H](Cc1ccccc1)C(=O)N[C@@H](Cc1c[nH]c2ccccc12)C(=O)N[C@H](C(=O)N[C@H](C(=O)N[C@H](C(=O)N[C@@H](C)C(=O)N[C@@H](CC(C)C)C(N)=O)[C@@H](C)O)C(C)C)[C@@H](C)CC
READOUT QUALIFIER: ≥
NUMERIC READOUT: 388

----------
Quick note: these are MIC numbers for system: Klebsiella aerogenes ATCC 13048

SMILES REPR: CC[C@H](C)[C@H](NC(=O)[C@H](CCCCN)NC(=O)[C@H](CCCCN)NC(=O)[C@H](CC(C)C)NC(=O)[C@@H](NC(=O)[C@H](CCCCN)NC(=O)[C@H](Cc1c[nH]c2ccccc12)NC(=O)[C@@H](N)CC(C)C)[C@@H](C)CC)C(=O)N[C@@H](Cc1c[nH]c2ccccc12)C(=O)N[C@@H](CCCN=C(N)N)C(=O)N[C@H](C(=O)N[C@@H](CC(C)C)C(=O)N[C@@H](Cc1c[nH]c2ccccc12)C(=O)N[C@@H](CC(N)=O)C(=O)N[C@@H](Cc1c[nH]c2ccccc12)C(=O)N[C@@H](CCCN=C(N)N)C(=O)O)C(C)C
MIC: ≥ 57.2 µM
--
SMILES REPR: CC(C)C[C@H](NC(=O)CNC(=O)[C@H](C)NC(=O)[C@@H](N)CCCN=C(N)N)C(=O)N[C@@H](CCC(N)=O)C(=O)N[C@@H](Cc1ccccc1)C(=O)N1CCC[C@H]1C(=O)N[C@H](C(=O)NCC(=O)N[C@@H](CCCN=C(N)N)C(=O)N[C@H](C(=O)N[C@@H](Cc1cnc[nH]1)C(=O)N[C@@H](CCCN=C(N)N)C(=O)N[C@@H](CC(C)C)C(=O)N[C@@H](CC(C)C)C(=O)N[C@@H](CCCN=C(N)N)C(=O)N[C@@H](CCCCN)C(N)=O)C(C)C)C(C)C
MIC: ≥ 64 µM
--
SMILES REPR: CC[C@H](C)[C@H](NC(=O)[C@H](CCCN=C(N)N)NC(=O)[C@H](CCC(N)=O)NC(=O)[C@@H](NC(=O)[C@@H](NC(=O)[C@H](CCCN=C(N)N)NC(=O)[C@H](CCCCN)NC(C)=O)[C@@H](C)CC)C(C)C)C(=O)N[C@@H](CCCCN)C(=O)N[C@@H](CC(=O)O)C(=O)N[C@@H](Cc1ccccc1)C(=O)N[C@@H](CC(C)C)C(=O)N[C@@H](CCCN=C(N)N)C(N)=O
MIC: ≥ 163 µM
--
SMILES REPR: CC[C@H](C)[C@H](N)C(=O)N[C@@H](CC(C)C)C(=O)NCC(=O)N[C@@H](CCCCN)C(=O)N[C@@H](CC(C)C)C(=O)N[C@@H](Cc1c[nH]c2ccccc12)C(=O)N[C@@H](CCC(=O)O)C(=O)NCC(=O)N[C@@H](CC(C)C)C(=O)N[C@@H](CCCCN)C(=O)N[C@@H](CO)C(=O)N[C@@H](CC(C)C)C(=O)N[C@@H](Cc1ccccc1)C(N)=O
MIC: ≥ 66.5 µM

----------
The entries below come with measured MIC values attached.
- Test system: Escherichia coli
- ASSAY NAME: ≥ marks a high value that may be exact or a test limit, other limits are often not marked, values filed in µg/mL are converted to µM

SMILES REPR: CC(C)C[C@H](NC(=O)[C@H](CCCCN)NC(=O)[C@H](Cc1ccccc1)NC(=O)[C@@H](NC(=O)CNC(=O)CNC(=O)[C@H](CC(C)C)NC(=O)[C@@H](N)Cc1ccccc1)C(C)C)C(=O)N[C@@H](C)C(=O)N[C@@H](CO)C(=O)N[C@@H](CCCCN)C(=O)N[C@H](C(=O)N[C@@H](Cc1ccccc1)C(=O)N1CCC[C@H]1C(=O)N[C@@H](C)C(=O)N[C@H](C(=O)N[C@@H](Cc1ccccc1)C(=O)NCC(=O)N[C@@H](CCCCN)C(=O)N[C@H](C(=O)O)C(C)C)C(C)C)C(C)C
READOUT QUALIFIER: =
MIC / µM: 30.3
//
SMILES REPR: CC(C)C[C@H](NC(=O)[C@H](C)NC(=O)CNC(=O)[C@H](CC(C)C)NC(=O)[C@@H](N)Cc1ccccc1)C(=O)N[C@@H](Cc1ccccc1)C(=O)N[C@@H](CCCCN)C(=O)N[C@H](C(=O)N[C@@H](C)C(=O)N[C@@H](CO)C(=O)N[C@@H](CCCCN)C(=O)N[C@H](C(=O)O)C(C)C)C(C)C
READOUT QUALIFIER: >
MIC / µM: 156
//
SMILES REPR: CC[C@H](C)[C@H](NC(=O)[C@H](CCCN=C(N)N)NC(=O)CNC(=O)[C@@H](NC(=O)[C@H](Cc1ccccc1)NC(=O)[C@@H]1CCCN1C(=O)[C@H](CC(C)C)NC(=O)[C@@H](N)Cc1ccccc1)C(C)C)C(=O)N[C@@H](C)C(=O)N[C@@H](CO)C(=O)N[C@@H](CCCCN)C(=O)N[C@H](C(=O)N[C@H](C(=O)N1CCC[C@H]1C(=O)N[C@@H](CO)C(=O)N[C@H](C(=O)N[C@H](C(=O)NCC(=O)N[C@@H](CCCCN)C(=O)N[C@H](C(=O)O)C(C)C)[C@@H](C)CC)C(C)C)C(C)C)C(C)C
READOUT QUALIFIER: >
MIC / µM: 121
//
SMILES REPR: CC(C)C[C@H](NC(=O)[C@H](Cc1ccccc1)NC(=O)[C@@H]1CCCN1C(=O)[C@H](Cc1ccc(O)cc1)NC(=O)[C@H](Cc1ccc(O)cc1)NC(=O)[C@H](Cc1ccc(O)cc1)NC(=O)[C@@H]1CCCN1C(=O)[C@H](Cc1ccccc1)NC(=O)[C@H](CCCN=C(N)N)NC(=O)[C@H](CCCN=C(N)N)NC(=O)[C@@H](N)C(C)C)C(=O)N[C@@H](CCCN=C(N)N)C(=O)N[C@@H](CCCN=C(N)N)C(N)=O
READOUT QUALIFIER: =
MIC / µM: 27.3
//
SMILES REPR: CC(C)C[C@H](NC(=O)[C@H](C)NC(=O)CNC(=O)[C@H](CC(C)C)NC(=O)[C@@H](N)Cc1ccccc1)C(=O)N[C@@H](Cc1ccccc1)C(=O)N[C@@H](CCCCN)C(=O)N[C@H](C(=O)N[C@@H](C)C(=O)N[C@@H](Cc1c[nH]c2ccccc12)C(=O)N[C@@H](CCCCN)C(=O)O)C(C)C
READOUT QUALIFIER: =
MIC / µM: 78.2

----------
- System: Klebsiella pneumoniae
EXPERIMENTAL READOUT: MIC

SMILES REPR: CC[C@H](C)[C@@H]1NC(=O)[C@H](CCCCN)NC(=O)[C@@H](NC(=O)[C@H](CCSC)NC(=O)[C@H](CC(C)C)NC(=O)[C@@H]2CCCN2C(=O)[C@H](Cc2ccccc2)NC(=O)[C@H](CC(C)C)NC(=O)[C@H](CC(C)C)NC(=O)[C@@H](N)Cc2ccccc2)CSSC[C@@H](C(=O)O)NC(=O)[C@H](CCCCN)NC(=O)CNC(=O)[C@H](CCC(N)=O)NC1=O
RESULT: > 60.9 µM

----------
- System: Cronobacter sakazakii DPC 6440

SMILES REPR: CC[C@H](C)[C@H](NC(=O)[C@@H](N)Cc1c[nH]c2ccccc12)C(=O)N[C@@H](CCC(N)=O)C(=O)N1CCC[C@H]1C(=O)N[C@@H](CCCCN)C(=O)N[C@H](C(=O)N[C@@H](CCCCN)C(=O)N[C@H](C(=O)N[C@H](C(=O)N1CCC[C@H]1C(=O)N[C@@H](C)C(=O)N[C@H](C(=O)N[C@@H](CCCN=C(N)N)C(=O)N[C@@H](C)C(=O)N[C@@H](CC(C)C)C(=O)O)C(C)C)[C@@H](C)CC)C(C)C)[C@@H](C)O
MIC: ≥ 312 µM

SMILES REPR: CC[C@H](C)[C@H](NC(=O)[C@@H](NC(=O)[C@H](CCCCN)NC(=O)[C@@H](NC(=O)[C@H](CCCCN)NC(=O)[C@H](C)NC(=O)[C@H](CCC(N)=O)NC(=O)[C@@H](NC(=O)[C@@H](N)Cc1c[nH]c2ccccc12)[C@@H](C)CC)[C@@H](C)O)C(C)C)C(=O)N[C@@H](C)C(=O)N[C@@H](Cc1ccc(O)cc1)C(=O)N[C@H](C(=O)N[C@@H](CCCN=C(N)N)C(=O)N[C@@H](Cc1ccc(O)cc1)C(=O)N[C@@H](CC(C)C)C(=O)O)C(C)C
MIC: 19.5 µM

SMILES REPR: CC[C@H](C)[C@H](N)C(=O)N[C@@H](Cc1cnc[nH]1)C(=O)N[C@@H](CCC(N)=O)C(=O)NCC(=O)N[C@@H](CC(C)C)C(=O)N1CCC[C@H]1C(=O)N[C@@H](CCC(N)=O)C(=O)N[C@@H](CCC(=O)O)C(=O)O
MIC: ≥ 2500 µM

SMILES REPR: CC(C)C[C@H](NC(=O)[C@H](CC(C)C)NC(=O)[C@H](CC(N)=O)NC(=O)[C@H](CC(=O)O)NC(=O)[C@H](CC(N)=O)NC(=O)[C@H](CC(C)C)NC(=O)[C@@H](N)C(C)C)C(=O)N[C@@H](CCCN=C(N)N)C(=O)O
MIC: ≥ 2500 µM

SMILES REPR: CC[C@H](C)[C@H](N)C(=O)N[C@@H](C)C(=O)N[C@@H](C)C(=O)N[C@@H](C)C(=O)NCC(=O)N[C@@H](CC(C)C)C(=O)N1CCC[C@H]1C(=O)N[C@@H](CCC(N)=O)C(=O)N[C@@H](CCC(=O)O)C(=O)O
MIC: ≥ 625 µM

// provenance: DBAASP
